Values compiled from patent EP1652858A1.

# TESTED TARGET: HLA-B*0702 (human)
# ASSAY NOTES: competition binding assay, purified HLA, labelled probe peptide
# EXPERIMENTAL PARAMETERS: remark: other sources report otherwise
REPORTED ENDPOINT: IC50 (nM)
Numbers only, in nM.

> print(dat)
                                   binder  measured
1  APLGGAARAL (modifications not checked)       0.8

Note: attention shifts to another entry.
IC50 reading for KPTLHGPTPL (modifications not checked) : 5.8
